Assignment: determine reported pEC50 for the given molecules.
System: pLai RLuc reporter virus
Protocol Description: microbe, parasite or virus in culture
Format: cell-based, HIV
Assay Conditions: Human immunodeficiency virus 1, 72 h, read-out: Antiviral Serum Shift RLuc CCM, CCM (RPMI media, 10% FBS, 1% P/S), 72-h incubation
One number for each entry, as −log10 of the molar value.

Molecule: O=C(NCc1ccc(F)cc1F)c1cn2c(c(O)c1=O)C(=O)N1CCCCC[C@@H]2C1
Tested Target: pLai RLuc reporter virus
pEC50: 9.63

Molecule: O=C(NCc1ccc(F)cc1F)c1cn2c(c(O)c1=O)C(=O)N1CCCC(F)[C@H]2C1 (some centres unmarked)
Tested Target: pLai RLuc reporter virus
pEC50: 9.38

Molecule: O=C(NCc1c(F)cc(F)cc1F)c1cn2c(c(O)c1=O)C(=O)N1C[C@H](O)CC[C@H]2C1 (single isomer, unassigned)
Tested Target: pLai RLuc reporter virus
pEC50: 8.27

Look up pEC50 for the entries below, preserving their order.
1. O=C(NCc1c(F)cc(F)cc1F)c1cn2c(c(O)c1=O)C(=O)N1C[C@@H]2CCCC12CC2
2. CC[C@]1(O)CCCN2C[C@H]1n1cc(C(=O)NCc3ccc(F)cc3F)c(=O)c(O)c1C2=O

9.51
9.12

----------
Protocol Description: Cytotoxicity assay in MT-4 cells
Assay type: cell-based, human
Assay Conditions: human, uninfected MT-4 cells, 5 days incubation; read-out: CC50
Threshold 10 µM: CC50 at 5 days strictly smaller gives yes, otherwise no.

Previously resolved entries follow.
Compound: O=C(NCc1c(F)cc(F)cc1F)c1cn2c(c(O)c1=O)C(=O)N1C[C@H]2CCc2c(F)cccc21
Assigned Label: yes

Compound: O=C(NCc1c(F)cc(F)cc1F)c1cn2c(c(O)c1=O)C(=O)N1C[C@@H]2CCc2ccc(F)cc21
Assigned Label: no

Compound: O=C(NCc1ccc(F)cc1F)c1cn2c(c(O)c1=O)C(=O)N1CCCC3(CC3)[C@H]2C1
Assigned Label: yes

Compound: O=C(NCc1ccc(F)c(Cl)c1F)c1cn2c(c(O)c1=O)C(=O)N1CC2CCc2cccc(F)c21 (centres unmarked)
Assigned Label: no

Compound: C[C@]12CCCCN(C1)C(=O)c1c(O)c(=O)c(C(=O)NCc3ccc(F)cc3F)cn12
Assigned Label: no

Compound: O=C(NCc1cccc(F)c1F)c1cn2c(c(O)c1=O)C(=O)N1CCCC[C@H]2C1
Assigned Label: no

Compound: CC[C@]1(OC)CCCN2C[C@H]1n1cc(C(=O)NCc3c(F)cc(F)cc3F)c(=O)c(O)c1C2=O
Assigned Label: yes

Compound: O=C(NCc1c(F)cc(F)cc1F)c1cn2c(c(O)c1=O)C(=O)N1C[C@@H]2CCC(F)(F)C1
Assigned Label: no

Compound: O=C(NCc1c(F)cc(F)cc1F)c1cn2c(c(O)c1=O)C(=O)N1CCCC2CC1 (racemic) [Example 24]
Assigned Label: no

Compound: O=C(NCc1ccc(F)cc1F)c1cn2c(c(O)c1=O)C(=O)N1CCCC3(CC3)[C@@H]2C1
Assigned Label: yes

For "C[C@@]1(F)CC[C@H]2CN(C1)C(=O)c1c(O)c(=O)c(C(=O)NCc3c(F)cc(F)cc3F)cn12" , is the recorded CC50 at 5 days below the cut-off of 10 µM? no

Same for "O=C(NCc1c(F)cc(F)cc1F)c1cn2c(c(O)c1=O)C(=O)N1CC[C@H](O)CC[C@H]2C1" no

Same for "C[C@@H]1CCC[C@H]2CN1C(=O)c1c(O)c(=O)c(C(=O)NCc3ccc(F)cc3F)cn12" no

Same for O=C(NCc1c(F)cc(F)cc1F)c1cn2c(c(O)c1=O)C(=O)N1Cc3ccc(Cl)cc3C[C@@H]2C1 (single isomer, unassigned) no

Same for "C[C@@H]1CC[C@@H](C)N2C[C@H]1n1cc(C(=O)NCc3c(F)cc(F)cc3F)c(=O)c(O)c1C2=O" yes

Same for O=C(NCc1c(F)cc(F)cc1F)c1cn2c(c(O)c1=O)C(=O)N1C[C@@H](O)CC[C@H]2C1 (single isomer, unassigned) no

Same for "O=C(NCc1c(F)cc(F)cc1F)c1cn2c(c(O)c1=O)C(=O)N1CC[C@@H](F)CC[C@H]2C1" no

Same for "O=C(NCc1ccc(F)cc1F)c1cn2c(c(O)c1=O)C(=O)N1CCCC[C@@]2(CF)C1" no

Same for "O=C(NCc1ccc(F)cc1F)c1cn2c(c(O)c1=O)C(=O)N1CC[C@@H](F)C[C@H]2C1" no

Same for "O=C(NCc1c(F)cc(F)cc1F)c1cn2c(c(O)c1=O)C(=O)N1CCC(F)=C[C@H]2C1" no

Same for O=C(NCc1ccc(F)cc1F)c1cn2c(c(O)c1=O)C(=O)N1C[C@@H]2CCc2ccccc21 (single isomer, unassigned) no

Same for "C[C@H]1CC[C@H]2CN(C1)C(=O)c1c(O)c(=O)c(C(=O)NCc3c(F)cc(F)cc3F)cn12" no

Same for "O=C(NCc1c(F)cc(F)cc1F)c1cn2c(c(O)c1=O)C(=O)N1CC[C@@H](F)C[C@H]2C1" no

Same for "O=C(NCc1ccc(F)c(Cl)c1F)c1cn2c(c(O)c1=O)C(=O)N1CCC=C[C@H]2C1" yes

Same for "C[C@@H]1CC[C@H](C)N2C[C@H]1n1cc(C(=O)NCc3ccc(F)cc3F)c(=O)c(O)c1C2=O" yes

Same for "O=C(NCc1ccc(F)c(Cl)c1F)c1cn2c(c(O)c1=O)C(=O)N1C[C@@H]2CCCc2ccccc21" yes

Same for "O=C(NCc1ccc(F)cc1F)c1cn2c(c(O)c1=O)C(=O)N1CCC[C@@H]3C[C@]32C1" yes

----------
Protocol Description: Cytotoxicity assay in MT-4 cells
Type: cell-based, human
Assay Conditions: human, uninfected MT-4 cells, 5 days incubation; read-out: CC50
Property Measured: CC50 at 5 days (µM)
Numbers only, in µM.

# annotated cases, reported CC50 at 5 days shown
Compound: O=C(NCc1ccc(F)cc1F)c1cn2c(c(O)c1=O)C(=O)N1C[C@@H]2CCC(F)(F)C1
Property Measured: CC50 at 5 days
Observed: 10.7
//
Compound: O=C(NCc1ccc(F)c(Cl)c1F)c1cn2c(c(O)c1=O)C(=O)N1CCCC(F)(F)[C@@H]2C1 (single isomer, unassigned)
Property Measured: CC50 at 5 days
Observed: 15.7
//
Compound: O=C1c2c(O)c(=O)c(-c3nnc(Cc4ccc(F)cc4F)s3)cn2[C@H]2CCCCN1C2
Property Measured: CC50 at 5 days
Observed: 3.55
//
Compound: O=C(NCc1ccc(F)c(Cl)c1F)c1cn2c(c(O)c1=O)C(=O)N1CCCC[C@H]2C1
Property Measured: CC50 at 5 days
Observed: 4.39

Look up CC50 at 5 days for the entries below, preserving their order.
1. O=C(NCc1ccc(F)cc1F)c1cn2c(c(O)c1=O)C(=O)N1CCC[C@H]3C[C@@]32C1
2. O=C(NCc1c(F)cc(F)cc1F)c1cn2c(c(O)c1=O)C(=O)N1CCCC(F)(F)[C@@H]2C1 (single isomer, unassigned)
3. O=C(NCc1ccc(F)cc1F)c1cn2c(c(O)c1=O)C(=O)N1Cc3ccccc3C[C@H]2C1

1: 8.82; 2: 37.1; 3: 15

----------
Protocol Description: Cytotoxicity assay in MT-4 cells
Type: cell-based, human
Assay Conditions: human, uninfected MT-4 cells, 5 days incubation; read-out: CC50
Assignment: determine reported CC50 at 5 days for the given compounds.
Answers are plain numbers, in µM.

# annotated cases, reported CC50 at 5 days shown
Compound: O=C(NCc1c(F)cc(F)cc1F)c1cn2c(c(O)c1=O)C(=O)N1C[C@@H]2CCCc2ccccc21
CC50 at 5 days / µM: 10.4
--
Compound: O=C(NCc1c(F)cc(F)cc1F)c1cn2c(c(O)c1=O)C(=O)N1C[C@@H]2CCc2cccc(F)c21
CC50 at 5 days / µM: 9.24
--
Compound: O=C(NCc1c(F)cc(F)cc1F)c1cn2c(c(O)c1=O)C(=O)N1CCC(F)(F)C[C@H]2C1
CC50 at 5 days / µM: 30.5

Look up CC50 at 5 days for the entries below, preserving their order.
1. O=C(NCc1ccc(F)c(Cl)c1F)c1cn2c(c(O)c1=O)C(=O)N1CC2CCc2cc(F)ccc21 (stereo not shown)
2. C[C@@H]1C=C[C@H](CF)N2C[C@H]1n1cc(C(=O)NCc3ccc(F)cc3F)c(=O)c(O)c1C2=O
3. C[C@H]1C=CC[C@H]2CN1C(=O)c1c(O)c(=O)c(C(=O)NCc3ccc(F)cc3F)cn12

1. 3.58
2. 5.57
3. 10

----------
Protocol Description: Cytotoxicity assay in MT-4 cells
Assay type: cell-based, human
Assay Conditions: human, uninfected MT-4 cells, 5 days incubation; read-out: CC50
Property Measured: CC50 at 5 days (µM)
Numbers only, in µM.

Compound: O=C(NCc1ccc(F)cc1F)c1cn2c(c(O)c1=O)C(=O)N1CCCC(F)[C@H]2C1 (stereo partly shown) [Example 172-2]
CC50 at 5 days (µM): 12.8

Now consider the entry below.
Which CC50 at 5 days reading was recorded for the compound O=C(NCc1c(F)cc(F)cc1F)c1cn2c(c(O)c1=O)C(=O)N1CCC[C@H](F)[C@H]2C1 [Example 15-2] ? 15.3
